assay.name: Pharmacokinetics (PK) of the compound in rats
Format: in vivo
cond: rat, plasma; SD rats, PO 5 mg/kg, n = 3; read-out: tz1/2 po (terminal half-life) (converted)
quantity.name: half-life (h)

INSERT INTO measurements (compound, quantity_name, value_reported) VALUES
  ('COc1cc(C(=O)N2CCC[C@@H](N)C2)cc2nc(-c3cc4ccsc4n3CC3CC3)n(C)c12', 'half-life', 3.96),
  ('COc1cc(C(=O)N2CCC[C@@H](N)C2)cc2nc(-c3cc4ccsc4n3CC(C)C)n(C)c12', 'half-life', 13.2),
  ('COc1cc(C(=O)N2CCC[C@@H](N)C2)cc2nc(-c3cc4ccsc4n3CC(F)(F)F)n(C)c12', 'half-life', 4.7),
  ('CCn1c(-c2nc3cc(C(=O)N4CCC[C@@H](N)C4)cc(OC)c3n2C)cc2cccnc21 [Compound GSK199, reference compound]', 'half-life', 2.23),
  ('COc1cc(C(=O)N2CCC[C@@H](N)C2)cc2nc(-c3cc4cc(C)sc4n3CC3CC3)n(C)c12', 'half-life', 7.52);

(I) CCn1c(-c2nc3cc(C(=O)N4CCC[C@@H](N)C4)cc(OC)c3n2C)cc2cc(C)sc21
(II) COc1cc(C(=O)N2CCC[C@@H](N)C2)cc2nc(-c3cc4ccsc4n3CC3CCC3)n(C)c12
Exercise: Which value of half-life is greater, the one for I or the one for II ? Kindly state the label of the option you pick.
Key: II

###

assay.name: Liver microsomal stability in rat
Assay type: in vitro ADME
cond: rat liver microsomes, 0.5 mg protein/mL, 1 μM compound, 37° C.
quantity.name: microsomal CLint at 1 μM (µL/min/mg)

INSERT INTO measurements (structure_smiles, value_reported) VALUES
  ('CCn1c(-c2nc3cc(C(=O)N4CCC[C@@H](N)C4)cc(OC)c3n2C)cc2ccsc21', 5.8);

(I) COc1cc(C(=O)N2CCC[C@@H](N)C2)cc2nc(-c3cc4ccsc4n3CC(C)C)n(C)c12
(II) COc1cc(C(=O)N2CCC[C@@H](N)C2)cc2nc(-c3cc4ccsc4n3CC(F)(F)F)n(C)c12
Exercise: Between these two entries, I and II , state which has the higher microsomal CLint at 1 μM. Answer format: the label of the selected item.
Key: II
(II: 7.8 µL/min/mg, I: 4.4 µL/min/mg)

###

assay.name: Pharmacokinetics (PK) of the compound in rats
Format: in vivo
cond: rat, plasma; SD rats, PO 5 mg/kg, n = 3; read-out: AUClast po (area under concentration-time curve 0-24 h)
quantity.name: AUC(0-t) (ng·h/mL)

Example results:
INSERT INTO results (molecule, value_reported) VALUES
  ('COc1cc(C(=O)N2CCC[C@@H](N)C2)cc2nc(-c3cc4ccsc4n3CC(F)(F)F)n(C)c12 [Compound 21]', 1290),
  ('CCn1c(-c2nc3cc(C(=O)N4CCC[C@@H](N)C4)cc(OC)c3n2C)cc2cccnc21 [Compound GSK199, reference compound]', 496);

(P) CCn1c(-c2nc3cc(C(=O)N4CCC[C@@H](N)C4)cc(OC)c3n2C)cc2cc(C)sc21 [Compound 9]
(Q) COc1cc(C(=O)N2CCC[C@@H](N)C2)cc2nc(-c3cc4cc(C)sc4n3CC3CC3)n(C)c12 [Compound 23]
Exercise: Given the listed records, identify the one among P and Q with higher AUC(0-t). Provide the label of your selected option as the answer.
Key: Q

Where these numbers come from: patent US20200407370A1
